These entries and their values trace back to ChEMBL document CHEMBL1153475.

- system: Acyl-CoA:cholesterol acyltransferase (Oryctolagus cuniculus)
- Sequence (Q95214 whole entry): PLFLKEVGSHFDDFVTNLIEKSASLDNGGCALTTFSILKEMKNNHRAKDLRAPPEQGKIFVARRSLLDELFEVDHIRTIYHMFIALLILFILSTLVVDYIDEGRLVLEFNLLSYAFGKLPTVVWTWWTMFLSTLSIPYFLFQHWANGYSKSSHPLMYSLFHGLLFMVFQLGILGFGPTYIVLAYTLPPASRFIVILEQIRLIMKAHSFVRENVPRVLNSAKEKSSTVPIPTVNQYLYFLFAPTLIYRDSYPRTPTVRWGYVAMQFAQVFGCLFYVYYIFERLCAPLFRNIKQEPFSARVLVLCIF
Lab note - cut at 100 nM for IC50: y if strictly below, n if not.

# example entries with known answers
>>> category_label("CCCN1CCCc2c(C)c(NS(C)(=O)=O)c(C)c(NC(=O)C(C)(C)C)c21")
"n"
>>> category_label("CCCCN1CCc2c(C)c(NS(C)(=O)=O)c(C)c(NC(=O)C(C)(C)CC)c21")
"y"
>>> category_label("CCOCCN1CCc2c(C)c(NS(C)(=O)=O)c(C)c(NC(=O)C(C)(C)C)c21")
"n"

Does `CCCCN1CCc2c(C)cc(C)c(NC(=O)C(C)(C)C)c21` have IC50 strictly under 100 nM?
n

What do you have for `CCCCCCCCCCCN1CCc2c(C)c(CC(=O)O)c(C)c(NC(=O)C(C)(C)C)c21` ?
n

###

# reported Cmax; entries follow
- method_notes: Cmax in Sprague-Dawley rat at 10 mg/kg, po
- Assay type: ADME, organism-based
- Set-up: dose 10 mg/kg, route oral
- experimental_parameters: in vivo
# number only, unit ng/mL dropped from output

>>> assay_result("CCN1CCc2c(C)c(NS(C)(=O)=O)c(C)c(NC(=O)C(C)(C)C)c21")
2900

Here is the next item to consider.
Any idea what its Cmax is? The molecule is `CCCCCCCCN1CCc2c(C)c(CC(=O)O)c(C)c(NC(=O)C(C)(C)C)c21`
800

###

- method_notes: Protein binding in rat plasma assessed as total and protein free fraction concentration at 10 ug/ML after 150 mins by ultracentrifugation method
- Type: ADME, cell-free
- experimental_parameters: read-out: PPB (converted)
recorded_metric: fraction unbound at […], 10 ug/mL

Any idea what its fraction unbound at […], 10 ug/mL is? The compound is CCCCCCCCN1CCc2c(C)c(CC(=O)O)c(C)c(NC(=O)C(C)(C)C)c21 [PACTIMIBE]
0.021

###

# reported Tmax; entries follow
- method_notes: Tmax in Sprague-Dawley rat at 10 mg/kg, po
- Assay type: ADME, organism-based
- Set-up: dose 10 mg/kg, route oral
- experimental_parameters: in vivo
# number only, unit min dropped from output

>>> assay_result("CCN1CCc2c(C)c(NS(C)(=O)=O)c(C)c(NC(=O)C(C)(C)C)c21")
30

Here is the next item to consider.
Any idea what its Tmax is? The compound is CCCCCCCCN1CCc2c(C)c(CC(=O)O)c(C)c(NC(=O)C(C)(C)C)c21 [PACTIMIBE]
40.2

###

- method_notes: AUC (0 to 24 hrs) in Sprague-Dawley rat at 10 mg/kg, po
- Assay type: ADME, organism-based
- Design: time < 24 hr, dose 10 mg/kg, route oral
- experimental_parameters: plasma
recorded_metric: AUC(0-t) at 24 h (ng·h/mL)
# number only, unit ng·h/mL dropped from output

>>> assay_result("CCCCCCCCN1CCc2c(C)c(CC(=O)O)c(C)c(NC(=O)C(C)(C)C)c21 [PACTIMIBE]")
2800

Here is the next item to consider.
Any idea what its AUC(0-t) at 24 h is? The compound is `CCN1CCc2c(C)c(NS(C)(=O)=O)c(C)c(NC(=O)C(C)(C)C)c21`
10800
